- Tested system: human GIP receptor
- Experimental context: read-out: GIP RBA; GIP receptor binding; RIN where stated; unit nM printed for these values
Outcome measure: IC50 (nM)

> print(dat)
                                  substance  outcome.measure  readout.number
1  YSDGTFISDYSIAMDKlHQQDFVNWLLAQKPKKIRYS-NH2 [Compound 0601GIP4386]             IC50             156

----------
- Tested system: cardiomyocyte Gs- and Gi-coupled receptors
- Test name: cAMP assay in neonatal cardiomyocytes
- Assay type: cell-based, rat
- Experimental context: cAMP production, experiment of Figures 18A/18B
pEC(50): −log10 of the molar value.
Each entry below carries its recorded pEC(50).
Outcome measure: pEC(50)

> print(dat)
                                  substance  outcome.measure  readout.number
1  YAEGTFISDYSIAMDKIHQQDFVNWLLAQKGKKNDWKHNITQ-OH [GIP]          pEC(50)            8.04
2  YaEGTFISDYSIAMDKIHQQDFVNWLLAQKPSSGAPPPS-NH2 [Compound 0601GIP3794]          pEC(50)            7.93
